# PROCEDURE DETAILS: Terminal elimination half life in Sprague-Dawley rat at 5 mg/kg, po measured upto 24 hrs by LC/MS/MS analysis
# Assay type: ADME, organism-based
# CONDITIONS: in vivo, read-out: beta t1/2 (converted)
REPORTED PROPERTY: half-life (h)
Number in h, nothing else.

Q: Report half-life for CCOc1ccc(NC(=O)C(C)C)cc1C(=O)NC(C)c1cccc(NC)c1 (stereo unspecified) please.
Result: 1.89

====

# PROCEDURE DETAILS: AUC (0 to t) in Sprague-Dawley rat at 0.5 mg/kg, iv measured upto 24 hrs by LC/MS/MS analysis
# Type: ADME, organism-based
# CONDITIONS: in vivo
REPORTED PROPERTY: AUC(0-t) at 24 h (ng·h/mL)
Reply with just the number (in ng·h/mL).

Q: For CCOc1ccc(NC(=O)C(C)C)cc1C(=O)NC(C)c1cccc(NC)c1 (stereo unspecified) , what is its reported AUC(0-t) at 24 h?
Result: 174

====

# PROCEDURE DETAILS: Oral bioavailability in Sprague-Dawley rat at 5 mg/kg measured upto 24 hrs by LC/MS/MS analysis
# Format: ADME, organism-based
# CONDITIONS: in vivo
REPORTED PROPERTY: bioavailability

Q: Which measured bioavailability value corresponds to CCOc1ccc(NC(=O)C(C)C)cc1C(=O)NC(C)c1cccc(NC)c1 (stereo unspecified) ?
Result: 20.4%

====

# PROCEDURE DETAILS: Brain concentration in rat at 1 mg/kg, iv measured after 30 mins
# Assay type: ADME, organism-based
# CONDITIONS: read-out: Ct
REPORTED PROPERTY: concentration at 0.5 h (ng/g)
State just the number; it will be interpreted in ng/g.

Q: Please look up its concentration at 0.5 h: CCOc1ccc(NC(=O)C(C)C)cc1C(=O)NC(C)c1cccc(NC)c1 (stereo unspecified)
Result: 14.6

====

# SUBJECT OF TEST: Potassium voltage-gated channel subfamily A member 5 (Homo sapiens, UniProt P22460)
# Sequence (P22460 whole entry): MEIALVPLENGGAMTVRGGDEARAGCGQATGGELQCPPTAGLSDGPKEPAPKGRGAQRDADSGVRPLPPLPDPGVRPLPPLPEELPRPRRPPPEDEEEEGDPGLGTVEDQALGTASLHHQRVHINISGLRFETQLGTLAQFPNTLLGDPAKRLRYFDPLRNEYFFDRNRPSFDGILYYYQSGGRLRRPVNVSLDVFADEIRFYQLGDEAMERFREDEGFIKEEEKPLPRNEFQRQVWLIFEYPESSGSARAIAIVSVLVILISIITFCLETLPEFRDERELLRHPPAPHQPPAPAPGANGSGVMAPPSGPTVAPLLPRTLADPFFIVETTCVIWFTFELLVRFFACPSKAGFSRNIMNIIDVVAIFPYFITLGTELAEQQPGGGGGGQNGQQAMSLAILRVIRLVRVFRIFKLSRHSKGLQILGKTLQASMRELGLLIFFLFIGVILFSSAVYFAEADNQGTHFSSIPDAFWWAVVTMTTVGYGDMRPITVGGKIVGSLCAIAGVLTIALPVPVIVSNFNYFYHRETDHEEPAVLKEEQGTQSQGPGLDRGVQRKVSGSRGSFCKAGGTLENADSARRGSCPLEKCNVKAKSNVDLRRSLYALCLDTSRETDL
# PROCEDURE DETAILS: Inhibition of KV1.5 (unknown origin) by whole cell patch-clamp assay
Here, each record is paired with measured IC50 data.
Quick note: give the figure in µM, leave out the unit.

Examples with their reported IC50 follow.
INSERT INTO assay_data (compound, assay_value) VALUES
  ('CCOc1ccc(NC(=O)C(C)C)cc1C(=O)NC(C)c1cccc(NC)c1 (stereo not drawn)', 9.2),
  ('CCOc1ccc(NC(=O)C(C)C)cc1C(=O)NC(C)c1cccc(-c2nccs2)c1 (stereo not drawn)', 10),
  ('CCOc1ccc(NC(=O)C(C)C)cc1C(=O)NCc1cccc(OC(F)F)c1', 14.2);

Q: I have this compound here, CCOc1ccc(NC(=O)C(C)C)cc1C(=O)NC(C)c1cccc(C)c1 (stereo not drawn) , and I need its recorded IC50.
Result: 5.7

Q: Report IC50 for `CC(C)C(=O)Nc1ccc(N(C)C)c(C(=O)NCc2cccc(-c3nccs3)c2)c1` please.
Result: 11

Q: Reported IC50, compound CCOc1ccc(NC(=O)C(C)C)cc1C(=O)NC(C)c1cccc(OC(F)F)c1 (stereo not drawn) : ____
Result: 10

Q: Requested field: IC50. Item: CCOc1ccc(NC(=O)C(C)C)cc1C(=O)NC(C)c1cccc(OC)n1 (stereo not drawn)
Result: 10

Origin of values: ChEMBL document CHEMBL5532672
